test: Antioxidant activity assessed as hydroxyl radical scavenging activity incubated for 5 mins by spectrophotometric analysis; assay type: functional; design: concentration or dose not given beside the values
ENDPOINT: Activity (%)
Provide only the numeric value, understood in %.

Here are 8 compounds together with their reported answers.
O=c1[nH]c2c(c(=O)[nH]1)Oc1c(c(=O)oc3ccccc13)C2c1ccc(Cl)cc1 (stereo not given) ... 68.3
O=c1[nH]c2c(c(=O)[nH]1)Oc1c(c(=O)oc3ccccc13)C2c1ccccc1Cl (stereo not given) ... 67.2
Cc1nn(-c2ccccc2)c(Cl)c1C1c2[nH]c(=O)[nH]c(=O)c2Oc2c1c(=O)oc1ccccc21 (stereo not given) ... 54.3
O=c1[nH]c2c(c(=O)[nH]1)Oc1c(c(=O)oc3ccccc13)C2c1ccc(F)cc1 (stereo not given) ... 62.1
COc1ccc(C2c3[nH]c(=O)[nH]c(=O)c3Oc3c2c(=O)oc2ccccc32)cc1 (stereo not given) ... 54.3
O=c1[nH]c2c(c(=O)[nH]1)Oc1c(c(=O)oc3ccccc13)C2c1c(Cl)cccc1Cl (stereo not given) ... 65.4
O=c1[nH]c2c(c(=O)[nH]1)Oc1c(c(=O)oc3ccccc13)C2c1ccccc1O (stereo not given) ... 54.3
O=c1[nH]c2c(c(=O)[nH]1)Oc1c(c(=O)oc3ccccc13)C2c1cccc([N+](=O)[O-])c1 (stereo not given) ... 54.3

Using the record for COc1ccc(C2c3[nH]c(=O)[nH]c(=O)c3Oc3c2c(=O)oc2ccccc32)c(O)c1 (stereo not given) , state its measured Activity.
54.3

Using the record for O=c1[nH]c2c(c(=O)[nH]1)Oc1c(c(=O)oc3ccccc13)C2c1ccc([N+](=O)[O-])cc1 (stereo not given) , state its measured Activity.
54.3
